In this section we review reported GI50 values for a set of compounds.
test system: UACC-257 melanoma; assay: NCI tumour cell line growth inhibition, 48 h
reported-endpoint: GI50

# compound, measured-on, observed-value
measured = [
    ("O=c1ccn(C2OC(CO)C(O)C2F)c(=O)[nH]1 (stereo not given)", "UACC-257 melanoma", "> 1000 µM"),
    ("COc1cc(OC)cc(C2CC(=O)Nc3c2c(C)nn3-c2nc3ccccc3[nH]2)c1 (stereo not given)", "UACC-257 melanoma", "2.64 µM"),
    ("NOCC(=O)O", "UACC-257 melanoma", "> 100 µM"),
    ("O=S(=O)(NC1=NCCN1C(=S)SN1CCn2c1nsc2=S)c1ccc(Br)cc1", "UACC-257 melanoma", "46.6 µM"),
    ("CCN1CCN(C(=O)[C@]23CC[C@@H](C)[C@H](C)[C@@H]2C2=CC[C@@H]4[C@@]5(C)C/C(=C/c6ccncc6)C(=O)C(C)(C)[C@@H]5CC[C@@]4(C)[C@]2(C)CC3)CC1", "UACC-257 melanoma", "1.84 µM"),
]

====

test system: SNB-19 CNS; test: NCI tumour cell line growth inhibition, 48 h
reported-endpoint: TGI

# compound, measured-on, observed-value
records = [
    ("CCC1(CC)C(=O)OC(=O)C1(CC)CC", "SNB-19 CNS", "> 100 µM"),
    ("CC12OC(c3ccccc3)=CC(c3ccc(Cl)cc3)=C1C(c1ccccc1)=CC2=O (stereo not drawn)", "SNB-19 CNS", "> 100 µM"),
    ("O=C(Nc1cccc2ccccc12)Nn1cnnc1", "SNB-19 CNS", "> 100 µM"),
]

====

system: SF-268 CNS; assay: NCI tumour cell line growth inhibition, 48 h; in the data active = GI50 below about 0.43 µM; inactive = the rest
Outcome codes: True for active, False for inactive

# compound, label-class
records = [
    ("COc1cc(OC)c(/C=C/S(=O)(=O)Cc2cnc(OC)c(N)c2)c(OC)c1", "True"),
    ("CC(C)=CCCC(C)c1ccc(C)c2c1OCN(CC1CCNCC1)C2 (stereo not given)", "False"),
    ("COc1cc2c(cc1OCCCOc1cc3c(cc1OC)C(=O)N1C[C@H](F)C[C@H]1C=N3)N=C[C@@H]1C[C@@H](F)CN1C2=O", "False"),
    ("CCOC(=O)C(Cc1c[nH]c2ccc(N)cc12)(NC(C)=O)C(=O)OCC", "False"),
    ("CSc1ccc(C2=NN(C(=O)c3ccc(F)cc3)C(c3ccc(F)cc3)C2)cc1 (stereo not given)", "False"),
]

====

tested on: M14 melanoma; assay: NCI tumour cell line growth inhibition, 48 h
Recorded measurements of TGI, one per entry
reported-endpoint: TGI

# molecule, measured-on, observed-value
data = [
    ("COc1cc(S(=O)(=O)Nc2nc(-c3ccc(N4C(=O)CSC4c4cccs4)cc3)cs2)ccc1Cl (stereo not given)", "M14 melanoma", "> 100 µM"),
    ("COc1c2nc(CCl)[nH]c(=O)c2c(OC)c2nc(CCl)[nH]c(=O)c12", "M14 melanoma", "> 100 µM"),
    ("COC1CC(C)C(OC)C2=CC(=O)C=C(NC(=O)/C(C)=C/C=C\\C(C)C(OC(N)=O)/C(C)=C\\C(C)C1OC)C2=O (stereo not given)", "M14 melanoma", "12.2 µM"),
    ("COc1cc(OC)c(/C=C/S(=O)(=O)Cc2cnc(OC)c(N)c2)c(OC)c1", "M14 melanoma", "> 100 µM"),
    ("O=C1C(=O)c2c(oc(=O)c3ccccc23)-c2ccccc21", "M14 melanoma", "> 25 µM"),
]

====

Each item that follows carries a reported TGI.
system: SN12C renal; test: NCI tumour cell line growth inhibition, 48 h
reported-endpoint: TGI

# compound, reported-endpoint, observed-value
data = [
    ("CC(=O)OCC1OC(N2C(=O)C(=O)c3cc(C)ccc32)C(OC(C)=O)C(OC(C)=O)C1OC(C)=O (stereo not given)", "TGI", "> 100 µM"),
    ("CC(=O)CC(=O)Nc1ccc2ccccc2c1", "TGI", "> 100 µM"),
    ("Cc1cc([C@H](C#N)c2nc3ccccc3[nH]2)nc(Cl)n1", "TGI", "> 100 µM"),
    ("CCN1CCN(C(=O)[C@]23CC[C@@H](C)[C@H](C)[C@@H]2C2=CC[C@@H]4[C@@]5(C)C/C(=C/c6ccncc6)C(=O)C(C)(C)[C@@H]5CC[C@@]4(C)[C@]2(C)CC3)CC1", "TGI", "2.99 µM"),
    ("COC(=O)c1s/c(=N\\C(=S)N(C)C)n(-c2ccccc2)c1C(=O)OC", "TGI", "> 100 µM"),
    ("C[C@]12C[C@H](c3ccccc3)Nc3ccccc3N1C(c1ccccc1)=NO2", "TGI", "> 100 µM"),
    ("CC(=O)O[C@@H]1CC[C@@]2(C)C(CC[C@H]3[C@@H]4CC[C@H]([C@H](C)CCc5nc6ccc(C)cc6[nH]5)[C@@]4(C)CC[C@@H]32)C1 (stereo not given in full)", "TGI", "> 100 µM"),
    ("CC(=O)c1cccc(N2COC(C)(C)c3nc4ccccc4n3C2)c1", "TGI", "> 100 µM"),
    ("O/N=C(\\c1ccccc1)N1CCCCC1", "TGI", "> 100 µM"),
    ("COc1cc(OCc2ccc3nc(-c4ccccc4)c(Cl)nc3c2)cc(OC)c1OC", "TGI", "> 100 µM"),
    ("COC(=O)C(C)NP(=O)(N1CC1)N1CC1 (stereo not given)", "TGI", "> 100 µM"),
    ("CCN(CC)c1cc2c3c(c1)CCCN3CCC2", "TGI", "> 10 µM"),
    ("O=c1c(Oc2ccc(F)cc2F)cc2cnc(NC3CCOCC3)nc2n1C1CCS(=O)(=O)CC1", "TGI", "> 25 µM"),
    ("COC(=O)C(Cc1c[nH]c2ccccc12)N=C1Nc2ccncc2S(=O)(=O)N1c1ccccc1 (stereo not given)", "TGI", "> 100 µM"),
    ("ClCc1cccc(Cn2cnc3c(NC45CC6CC(CC(C6)C4)C5)ncnc32)c1", "TGI", "50.9 µM"),
    ("CC(C)=CCC[C@@H](C)C1=C(O)C(O)C(C)=C2N=C(c3ccccc3)C(=O)OC21 (stereo not given in full)", "TGI", "> 25 µM"),
    ("CC1=C2[C@@H](CC1)[C@]1(C)O[C@@](C3CCCCC3)(C[C@H]1OC(=O)CO)[C@H]2OC(=O)/C=C/c1ccccc1", "TGI", "15.1 µM"),
    ("O=C1CC(CC(O)[C@@H]2CCCC[C@@H]2O)CC(=O)N1c1ccccc1 (stereo not given in full)", "TGI", "> 100 µM"),
    ("O=c1c(C=Nc2ccccc2Cl)c(O)n(-c2ccccc2)c(=O)n1-c1ccccc1", "TGI", "> 100 µM"),
    ("CN1CCC2(CC1)SC[C@H]1C(=O)N(c3ccc(Cl)cc3)C(=O)N12", "TGI", "> 100 µM"),
]

====

tested on: OVCAR-5 ovarian; test: NCI tumour cell line growth inhibition, 48 h
Examples of molecules with documented TGI follow.
reported-endpoint: TGI

# molecule, reported-endpoint, observed-value
rows = [
    ("O=C1CC(=O)NC(=NN2C(=O)/C(=C/C(=O)c3ccco3)N=C2c2ccccc2)N1", "TGI", "> 100 µM"),
    ("COc1ccc(N2C(=O)CC(Cl)C2=O)cc1 (stereo not drawn)", "TGI", "34.1 µM"),
    ("O=C(c1cc(Cl)cc(Cl)c1)N(C(=O)N1CCN(c2ccccc2)CC1)c1ccccc1", "TGI", "> 100 µM"),
    ("CN1CCN(CCCN)CC1", "TGI", "> 100 µM"),
    ("O=c1c2cc(Cl)ccc2oc2ccc(OCCCCCN3CCCCC3)cc12", "TGI", "11.2 µM"),
    ("CO[C@H]1c2cccc3cccc(c23)[C@@H]1n1[nH]c(=O)n(C(C)(C)C)c1=O", "TGI", "> 100 µM"),
    ("Cc1nc2sc(C(=O)Nc3cccc(Cl)c3C)c(N)c2cc1C(=O)/C=C/c1ccccc1", "TGI", "1.74 µM"),
    ("CCN(CC)C(=C(C(Cl)=C(Cl)Cl)[N+](=O)[O-])N(CC)CC", "TGI", "> 100 µM"),
]

====

system: CAKI-1 renal; experiment: NCI tumour cell line growth inhibition, 48 h
Reported TGI values for a set of molecules

# molecule, TGI
records = [
    ("CC1(C)C2CCC3=C(CCC4(C)C5C[C@](C)(C(=O)O)CC[C@]5(C)CC[C@]34C)[C@@]2(C)CC[C@@H]1O (stereo not given in full)", "37.7 µM"),
    ("COC(=O)Nc1nc2ccc(S(=O)(=O)NC(CC(C)C)C(=O)OC)cc2[nH]1 (stereo not given)", "> 100 µM"),
    ("Cc1ccc2c(c1)C(=O)/C(=N/Nc1ccc(Cl)cc1)CCO2", "> 100 µM"),
    ("CN1CCC2(CC1)SC[C@H]1C(=O)N(c3ccc(Cl)cc3)C(=O)N12", "> 100 µM"),
    ("COc1cc(Cl)c2c3c(c(C(C)=O)oc13)CCC2", "> 100 µM"),
    ("C=C1C(=O)O[C@H]2[C@H]1CC/C(CNC(=O)c1cc3cc(OC)ccc3[nH]1)=C\\CC[C@@]1(C)O[C@@H]21", "6.25 µM"),
    ("O=C1OC(CC(=O)c2ccc(Cl)c(Cl)c2)C(Cl)=C1Cl (stereo not given)", "> 100 µM"),
    ("CCOC(=O)NNC(=O)C1CSC(c2ccccc2)N1C(C)=O (stereo not given)", "> 100 µM"),
    ("COc1cc(OC)cc(C2CC(=O)Nc3c2c(C)nn3-c2nc3ccccc3[nH]2)c1 (stereo not given)", "11 µM"),
    ("O=C1C(=O)c2c(oc(=O)c3ccccc23)-c2ccccc21", "> 25 µM"),
]
